STUDY_TARGET: Estrogen receptor beta (Homo sapiens)
RUN_DESCRIPTION: Antagonist activity at human ERbeta expressed in HEK293T cells after 24 hrs by ERE-based dual luciferase reporter gene assay
Assay type: cell-based
PROPERTY_MEASURED: pIC50
Please report pIC50 as the negative decimal logarithm of the molar concentration, giving only the number.

Solved entries:
Prompt: Reported pIC50 for Cc1cccc(OS(=O)(=O)C2CC3OC2C(c2ccc(/C=C/c4cc(O)cc(O)c4)cc2)=C3c2ccc(O)cc2)c1 (stereo not drawn) : what is it?
Completion: 5.51

Prompt: Reported pIC50 for Cc1ccc(OS(=O)(=O)C2CC3OC2C(c2ccc(/C=C/c4cc(O)cc(O)c4)cc2)=C3c2ccc(O)cc2)cc1 (stereo not drawn) : what is it?
Completion: 7.16

Prompt: Reported pIC50 for O=S(=O)(Oc1cccc(C(F)(F)F)c1)C1CC2OC1C(c1ccc(/C=C/c3cc(O)cc(O)c3)cc1)=C2c1ccc(O)cc1 (stereo not drawn) : what is it?
Completion: 7.38

Prompt: Reported pIC50 for COc1cc(/C=C/c2ccc(OS(=O)(=O)C3CC4OC3C(c3ccc(O)cc3)=C4c3ccc(O)cc3)cc2)cc(OC)c1 (stereo not drawn) : what is it?
Completion: 6.03

Prompt: Reported pIC50 for O=S(=O)(Oc1ccccc1Cl)C1CC2OC1C(c1ccc(/C=C/c3cc(O)cc(O)c3)cc1)=C2c1ccc(O)cc1 (stereo not drawn) : what is it?
Completion: 5.37

Prompt: Reported pIC50 for O=S(=O)(Oc1ccc(Br)cc1)C1CC2OC1C(c1ccc(/C=C/c3cc(O)cc(O)c3)cc1)=C2c1ccc(O)cc1 (stereo not drawn) : what is it?
Completion: 5.60

Further cases:
Prompt: Reported pIC50 for O=S(=O)(Oc1ccc(Cl)cc1)C1CC2OC1C(c1ccc(/C=C/c3cc(O)cc(O)c3)cc1)=C2c1ccc(O)cc1 (stereo not drawn) : what is it?
Completion: 5.99

Prompt: Reported pIC50 for COc1cc(/C=C/c2ccc(C3=C(c4ccc(O)cc4)C4CC(S(=O)(=O)Oc5cccc(OC)c5)C3O4)cc2)cc(OC)c1 (stereo not drawn) : what is it?
Completion: 6.19

* * *

STUDY_TARGET: Estrogen receptor beta (Homo sapiens, UniProt Q92731)
Sequence (Q92731 whole entry): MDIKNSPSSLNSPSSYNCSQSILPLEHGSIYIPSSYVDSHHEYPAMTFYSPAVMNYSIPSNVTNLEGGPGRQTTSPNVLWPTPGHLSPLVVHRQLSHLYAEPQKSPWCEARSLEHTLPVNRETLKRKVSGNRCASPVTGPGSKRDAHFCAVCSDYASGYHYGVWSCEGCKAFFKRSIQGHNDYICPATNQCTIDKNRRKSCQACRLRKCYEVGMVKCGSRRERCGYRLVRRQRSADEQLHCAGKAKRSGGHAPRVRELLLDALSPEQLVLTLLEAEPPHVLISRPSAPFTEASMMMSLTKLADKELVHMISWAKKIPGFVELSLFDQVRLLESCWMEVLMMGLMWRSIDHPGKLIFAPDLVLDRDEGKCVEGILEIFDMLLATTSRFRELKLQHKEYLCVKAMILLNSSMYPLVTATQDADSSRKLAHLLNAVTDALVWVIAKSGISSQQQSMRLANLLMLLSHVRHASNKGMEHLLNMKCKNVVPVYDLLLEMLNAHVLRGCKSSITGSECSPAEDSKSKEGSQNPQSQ
RUN_DESCRIPTION: Antagonist activity at human ERbeta expressed in HEK293T cells after 24 hrs by ERE-based dual luciferase reporter gene assay relative to E2
Format: cell-based
Parameters: concentration or dose not given beside the values
# Lookup of reported Efficacy keyed by entry
Answer with a number only, understood to be in %.

Prompt: Reported Efficacy for Cc1ccccc1OS(=O)(=O)C1CC2OC1C(c1ccc(/C=C/c3cc(O)cc(O)c3)cc1)=C2c1ccc(O)cc1 (configuration not stated) : what is it?
Completion: 100

Prompt: Reported Efficacy for O=S(=O)(Oc1ccc(Br)cc1)C1CC2OC1C(c1ccc(/C=C/c3cc(O)cc(O)c3)cc1)=C2c1ccc(O)cc1 (configuration not stated) : what is it?
Completion: 43

Prompt: Reported Efficacy for O=S(=O)(Oc1cccc(Br)c1)C1CC2OC1C(c1ccc(/C=C/c3cc(O)cc(O)c3)cc1)=C2c1ccc(O)cc1 (configuration not stated) : what is it?
Completion: 65

Prompt: Reported Efficacy for COc1cc(/C=C/c2ccc(OS(=O)(=O)C3CC4OC3C(c3ccc(O)cc3)=C4c3ccc(O)cc3)cc2)cc(OC)c1 (configuration not stated) : what is it?
Completion: 32

Prompt: Reported Efficacy for O=S(=O)(Oc1ccccc1)C1CC2OC1C(c1ccc(/C=C/c3ccccc3)cc1)=C2c1ccc(O)cc1 (configuration not stated) : what is it?
Completion: 83

Prompt: Reported Efficacy for O=S(=O)(Oc1cccc(C(F)(F)F)c1)C1CC2OC1C(c1ccc(/C=C/c3cc(O)cc(O)c3)cc1)=C2c1ccc(O)cc1 (configuration not stated) : what is it?
Completion: 31

Prompt: Reported Efficacy for COc1cc(/C=C/c2ccc(C3=C(c4ccc(O)cc4)C4CC(S(=O)(=O)Oc5cccc(OC)c5)C3O4)cc2)cc(OC)c1 (configuration not stated) : what is it?
Completion: 39
